Target: UniProtKB P15085
Sequence (P15085 whole entry): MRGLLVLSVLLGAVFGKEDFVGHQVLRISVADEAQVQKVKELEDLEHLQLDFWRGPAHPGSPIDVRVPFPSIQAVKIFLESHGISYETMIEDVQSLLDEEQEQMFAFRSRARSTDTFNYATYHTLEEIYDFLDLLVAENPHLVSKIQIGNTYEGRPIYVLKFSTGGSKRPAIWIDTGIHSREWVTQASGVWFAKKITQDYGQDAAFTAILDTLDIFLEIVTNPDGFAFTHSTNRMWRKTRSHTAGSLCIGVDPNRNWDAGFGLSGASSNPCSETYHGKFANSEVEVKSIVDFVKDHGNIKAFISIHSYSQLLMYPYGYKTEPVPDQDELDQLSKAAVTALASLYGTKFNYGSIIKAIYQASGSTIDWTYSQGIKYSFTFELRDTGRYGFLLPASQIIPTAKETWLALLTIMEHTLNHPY
Assay: Stability of compound assessed as carboxypeptidase A (unknown origin) mediated compound degradation by measuring half-life by RP-HPLC analysis
Assay type: ADME
Square brackets hold non-standard residues; d marks the D form. Peptide text beside a SMILES is read from it. * marks the point of attachment. ξ: configuration not given here. C22 diacid = O=C(O)CCCCCCCCCCCCCCCCCCCCC(=O)*; C20 diacid = O=C(O)CCCCCCCCCCCCCCCCCCC(=O)*; C18 diacid = O=C(O)CCCCCCCCCCCCCCCCC(=O)*; Stearoyl = CCCCCCCCCCCCCCCCCC(=O)*; Palmitoyl = CCCCCCCCCCCCCCCC(=O)*; Myristoyl = CCCCCCCCCCCCCC(=O)*; ξR = N=C(N)NCCCC(N)C(=O)O
Observation type: half-life (h)
Express it in h; write the number only.

Consider the following illustrative entries.
# Compound, half-life / h
measured = [
    ("CCCCCCCCCCCCCCCC(=O)N[C@H](C(=O)N[C@@H](C)C(=O)N[C@@H](CCC(N)=O)C(=O)N[C@@H](CCC(=O)O)C(=O)N[C@@H](CC(C)C)C(=O)N[C@@H](CCCNC(=N)N)C(=O)N[C@@H](CCCNC(=N)N)C(=O)N[C@H](C(=O)NCC(=O)N[C@@H](CC(=O)O)C(=O)N[C@@H](CCC(=O)O)C(=O)N[C@@H](Cc1ccccc1)C(=O)O)[C@@H](C)CC)[C@@H](C)CC (Palmitoyl-IAQELRRIGDEF-OH)", 3.19),
    ("CCCCCCCCCCCCCCCCCC(=O)N[C@H](C(=O)N[C@@H](C)C(=O)N[C@@H](CCC(N)=O)C(=O)N[C@@H](CCC(=O)O)C(=O)N[C@@H](CC(C)C)C(=O)N[C@@H](CCCNC(=N)N)C(=O)NC(CCCNC(=N)N)C(=O)N[C@H](C(=O)NCC(=O)N[C@@H](CC(=O)O)C(=O)N[C@@H](CCC(=O)O)C(=O)N[C@@H](Cc1ccccc1)C(=O)O)[C@@H](C)CC)[C@@H](C)CC (stereo partly specified) (Stearoyl-IAQELR[ξR]IGDEF-OH)", 17.6),
    ("CC[C@H](C)[C@H](NC(=O)CCCCCCCCCCCCCCCCC(=O)O)C(=O)N[C@@H](C)C(=O)N[C@@H](CCC(N)=O)C(=O)N[C@@H](CCC(=O)O)C(=O)N[C@@H](CC(C)C)C(=O)N[C@@H](CCCNC(=N)N)C(=O)NC(CCCNC(=N)N)C(=O)N[C@H](C(=O)NCC(=O)N[C@@H](CC(=O)O)C(=O)N[C@@H](CCC(=O)O)C(=O)N[C@@H](Cc1ccccc1)C(=O)O)[C@@H](C)CC (stereo partly specified) ({C18 diacid}-IAQELR[ξR]IGDEF-OH)", 4.51),
    ("CCCCCCCCCCCCCC(=O)N[C@H](C(=O)N[C@@H](C)C(=O)N[C@@H](CCC(N)=O)C(=O)N[C@@H](CCC(=O)O)C(=O)N[C@@H](CC(C)C)C(=O)N[C@@H](CCCNC(=N)N)C(=O)NC(CCCNC(=N)N)C(=O)N[C@H](C(=O)NCC(=O)N[C@@H](CC(=O)O)C(=O)N[C@@H](CCC(=O)O)C(=O)N[C@@H](Cc1ccccc1)C(=O)O)[C@@H](C)CC)[C@@H](C)CC (stereo partly specified) (Myristoyl-IAQELR[ξR]IGDEF-OH)", 1.02),
    ("CC[C@H](C)[C@H](NC(=O)CCCCCCCCCCCCCCCCCCCCC(=O)O)C(=O)N[C@@H](C)C(=O)N[C@@H](CCC(N)=O)C(=O)N[C@@H](CCC(=O)O)C(=O)N[C@@H](CC(C)C)C(=O)N[C@@H](CCCNC(=N)N)C(=O)NC(CCCNC(=N)N)C(=O)N[C@H](C(=O)NCC(=O)N[C@@H](CC(=O)O)C(=O)N[C@@H](CCC(=O)O)C(=O)N[C@@H](Cc1ccccc1)C(=O)O)[C@@H](C)CC (stereo partly specified) ({C22 diacid}-IAQELR[ξR]IGDEF-OH)", 1.28),
]

**Q:** Can you share its half-life? I mean this compound: CC[C@H](C)[C@H](NC(=O)CCCCCCCCCCCCCCCCCCC(=O)O)C(=O)N[C@@H](C)C(=O)N[C@@H](CCC(N)=O)C(=O)N[C@@H](CCC(=O)O)C(=O)N[C@@H](CC(C)C)C(=O)N[C@@H](CCCNC(=N)N)C(=O)NC(CCCNC(=N)N)C(=O)N[C@H](C(=O)NCC(=O)N[C@@H](CC(=O)O)C(=O)N[C@@H](CCC(=O)O)C(=O)N[C@@H](Cc1ccccc1)C(=O)O)[C@@H](C)CC (stereo partly specified) ({C20 diacid}-IAQELR[ξR]IGDEF-OH)
**A:** 0.25

---

System: Pepsin
Assay: Stability of compound assessed as Pepsin (unknown origin) mediated compound degradation by measuring half-life by HPLC analysis
Format: ADME
Conditions: human
Square brackets hold non-standard residues; d marks the D form. Peptide text beside a SMILES is read from it. * marks the point of attachment. ξ: configuration not given here. C22 diacid = O=C(O)CCCCCCCCCCCCCCCCCCCCC(=O)*; C20 diacid = O=C(O)CCCCCCCCCCCCCCCCCCC(=O)*; Myristoyl = CCCCCCCCCCCCCC(=O)*; ξR = N=C(N)NCCCC(N)C(=O)O
Recorded half-life by entry
Respond with the bare value in h.

**Q:** Suppose we examine the compound CCCCCCCCCCCCCC(=O)N[C@H](C(=O)N[C@@H](C)C(=O)N[C@@H](CCC(N)=O)C(=O)N[C@@H](CCC(=O)O)C(=O)N[C@@H](CC(C)C)C(=O)N[C@@H](CCCNC(=N)N)C(=O)NC(CCCNC(=N)N)C(=O)N[C@H](C(=O)NCC(=O)N[C@@H](CC(=O)O)C(=O)N[C@@H](CCC(=O)O)C(=O)N[C@@H](Cc1ccccc1)C(=O)O)[C@@H](C)CC)[C@@H](C)CC (stereo partly drawn) (Myristoyl-IAQELR[ξR]IGDEF-OH) ; what half-life value has been reported?
**A:** 0.65

**Q:** Looking for the measured half-life of CC[C@H](C)[C@H](NC(=O)CCCCCCCCCCCCCCCCCCC(=O)O)C(=O)N[C@@H](C)C(=O)N[C@@H](CCC(N)=O)C(=O)N[C@@H](CCC(=O)O)C(=O)N[C@@H](CC(C)C)C(=O)N[C@@H](CCCNC(=N)N)C(=O)NC(CCCNC(=N)N)C(=O)N[C@H](C(=O)NCC(=O)N[C@@H](CC(=O)O)C(=O)N[C@@H](CCC(=O)O)C(=O)N[C@@H](Cc1ccccc1)C(=O)O)[C@@H](C)CC (stereo partly drawn) ({C20 diacid}-IAQELR[ξR]IGDEF-OH) , can you help?
**A:** 1.52

**Q:** What half-life value was documented for this compound, CC[C@H](C)[C@H](NC(=O)CCCCCCCCCCCCCCCCCCCCC(=O)O)C(=O)N[C@@H](C)C(=O)N[C@@H](CCC(N)=O)C(=O)N[C@@H](CCC(=O)O)C(=O)N[C@@H](CC(C)C)C(=O)N[C@@H](CCCNC(=N)N)C(=O)NC(CCCNC(=N)N)C(=O)N[C@H](C(=O)NCC(=O)N[C@@H](CC(=O)O)C(=O)N[C@@H](CCC(=O)O)C(=O)N[C@@H](Cc1ccccc1)C(=O)O)[C@@H](C)CC (stereo partly drawn) ({C22 diacid}-IAQELR[ξR]IGDEF-OH) ?
**A:** 1.41

---

Each entry below carries its reported fold change (FC).
Biological target: Chymotrypsin (Homo sapiens, UniProt Q99895+P17538+P40313+Q6GPI1)
Test: Stability of compound assessed as chymotrypsin (unknown origin) mediated compound degradation by measuring fold change of half-life by RP-HPLC analysis relative to BimBH312-mer peptide
Format: ADME, protein assay
Square brackets hold non-standard residues; d marks the D form. Peptide text beside a SMILES is read from it. * marks the point of attachment. ξ: configuration not given here. C20 diacid = O=C(O)CCCCCCCCCCCCCCCCCCC(=O)*; C18 diacid = O=C(O)CCCCCCCCCCCCCCCCC(=O)*; ξR = N=C(N)NCCCC(N)C(=O)O
Would you mind answering with just the numeric figure?

# Compound, Experimental system, Observed
measured = [
    ("CC[C@H](C)[C@H](NC(=O)CCCCCCCCCCCCCCCCC(=O)O)C(=O)N[C@@H](C)C(=O)N[C@@H](CCC(N)=O)C(=O)N[C@@H](CCC(=O)O)C(=O)N[C@@H](CC(C)C)C(=O)N[C@@H](CCCNC(=N)N)C(=O)NC(CCCNC(=N)N)C(=O)N[C@H](C(=O)NCC(=O)N[C@@H](CC(=O)O)C(=O)N[C@@H](CCC(=O)O)C(=O)N[C@@H](Cc1ccccc1)C(=O)O)[C@@H](C)CC (some centres not stated) ({C18 diacid}-IAQELR[ξR]IGDEF-OH)", "Chymotrypsin (Homo sapiens, UniProt Q99895+P17538+P40313+Q6GPI1)", 4.7),
]

Proceed to the following item.
**Q:** Reported fold change (FC) for CC[C@H](C)[C@H](NC(=O)CCCCCCCCCCCCCCCCCCC(=O)O)C(=O)N[C@@H](C)C(=O)N[C@@H](CCC(N)=O)C(=O)N[C@@H](CCC(=O)O)C(=O)N[C@@H](CC(C)C)C(=O)N[C@@H](CCCNC(=N)N)C(=O)NC(CCCNC(=N)N)C(=O)N[C@H](C(=O)NCC(=O)N[C@@H](CC(=O)O)C(=O)N[C@@H](CCC(=O)O)C(=O)N[C@@H](Cc1ccccc1)C(=O)O)[C@@H](C)CC (some centres not stated) ({C20 diacid}-IAQELR[ξR]IGDEF-OH) : what is it?
**A:** 11.6
